Molecular target: phosphorylated active hERK2 enzyme (Homo sapiens (Human), UniProt P28482)
Sequence (P28482 whole entry): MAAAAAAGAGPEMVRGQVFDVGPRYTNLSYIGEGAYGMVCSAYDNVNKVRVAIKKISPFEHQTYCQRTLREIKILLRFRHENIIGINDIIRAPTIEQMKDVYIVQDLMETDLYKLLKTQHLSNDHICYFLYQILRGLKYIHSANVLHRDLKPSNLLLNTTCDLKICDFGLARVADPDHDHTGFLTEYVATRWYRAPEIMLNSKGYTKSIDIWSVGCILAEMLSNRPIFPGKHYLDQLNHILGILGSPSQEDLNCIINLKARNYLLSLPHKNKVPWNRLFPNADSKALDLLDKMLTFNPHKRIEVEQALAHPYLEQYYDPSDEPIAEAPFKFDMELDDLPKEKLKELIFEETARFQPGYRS
Test: Active Human ERK2 (hERK2) Activity Assay (IMAP-FP)
Type: biochemical
Details: Table 6, 0.5 nM hERK2, 30 μM ATP, 10 point titration, read-out: AERK2 IC50
pIC50: −log10 of the molar value.
Catalogue of pIC50 values

# chemSmiles, pIC50
records = [
    ("CSC1CCN(c2n[nH]c3cc(NC(=O)N[C@H](C)c4ccccc4)ncc23)CC1", 7.82),
    ("CC(C)Nc1n[nH]c2cc(NC(=O)N[C@H](C)c3ccc(F)cc3)ncc12", 8.80),
    ("Cc1nnsc1C(=O)Nc1n[nH]c2cc(NC(=O)N[C@H](C)c3ccccc3)ncc12", 8.96),
    ("COC[C@@H](NC(=O)Nc1cc2[nH]nc(NCC(F)(F)F)c2cn1)c1ccccc1", 9.05),
    ("CC(C)CC(=O)Nc1n[nH]c2cc(NC(=O)N[C@H](C)c3ccccc3)ncc12", 8.80),
    ("COC(=O)Nc1n[nH]c2cc(NC(=O)N[C@@H](c3ccc(F)cc3)C3(O)CCC3)ncc12", 9.40),
    ("CCNc1n[nH]c2cc(NC(=O)N[C@H](C)c3ccc(Cl)c(Cl)c3)ncc12", 8.49),
    ("Cc1cc([C@@H](C)NC(=O)Nc2cc3[nH]nc(N)c3cn2)ccc1Cl", 8.64),
]
